test system: murine 3T3 fibroblasts; test: primary screen, percent viability or growth; higher = less effect of the substance
RESULT_TYPE: Mammalian (3T3) cell % growth at 10 uM (%)
One number for each entry, in %.

Some solved entries appear below for comparison.
- MOLECULE: "Cc1coc2c1C(=O)C(=O)c1c-2ccc2c1CCCC2(C)C"
  ASSAY_TARGET: "murine 3T3 fibroblasts"
  RESULT_TYPE: "Mammalian (3T3) cell % growth at 10 uM"
  MEASURED_VALUE: 44.3
- MOLECULE: "C#C[C@]1(O)CC[C@H]2[C@@H]3CCC4=Cc5oncc5C[C@]4(C)[C@H]3CC[C@@]21C"
  ASSAY_TARGET: "murine 3T3 fibroblasts"
  RESULT_TYPE: "Mammalian (3T3) cell % growth at 10 uM"
  MEASURED_VALUE: 90.2
- MOLECULE: "COc1cc(NC(C)CCCN)c2ncccc2c1.O=P(O)(O)O.O=P(O)(O)O (centres unmarked)"
  ASSAY_TARGET: "murine 3T3 fibroblasts"
  RESULT_TYPE: "Mammalian (3T3) cell % growth at 10 uM"
  MEASURED_VALUE: 91.1
- MOLECULE: "COc1ccc2[nH]cc(CCN)c2c1.Cl"
  ASSAY_TARGET: "murine 3T3 fibroblasts"
  RESULT_TYPE: "Mammalian (3T3) cell % growth at 10 uM"
  MEASURED_VALUE: 24.2
- MOLECULE: "N[C@H](C(=O)O)[C@@H]1CC(Cl)=NO1"
  ASSAY_TARGET: "murine 3T3 fibroblasts"
  RESULT_TYPE: "Mammalian (3T3) cell % growth at 10 uM"
  MEASURED_VALUE: 48.2

// batch mode: one Mammalian (3T3) cell % growth at 10 uM value per listed entry
1. CC(=O)OC1CCC2(C)C3=C(CCC2C1(C)C)C1(C)CCC(C(C)CCC=C(C)C)C1(C)CC3 (centres unmarked)
2. Cl.Fc1ccc(C2CCNCC2COc2ccc3c(c2)OCO3)cc1 (centres unmarked)
3. NCCc1ccc(O)c(O)c1
4. COC1=CC(=O)C(O)=C/C1=C\C=C\c1ccccc1
5. CCN(CCCCOC(=O)c1ccc(OC)c(OC)c1)C(C)Cc1ccc(OC)cc1 (centres unmarked)
6. COc1cc2c(cc1OC)C1C(=O)c3ccc4c(c3OC1CO2)CC(C(C)C)O4 (centres unmarked)

1: 87.6; 2: 100; 3: 2.4; 4: 0.8; 5: 92.3; 6: 19.3

###

System: murine 3T3 fibroblasts
Assay: primary screen, percent viability or growth; higher = less effect of the substance
Experimental: Similarly, for measuring the cytotoxicity concentration (CC50) for 3T3 fibroblast cells, cultures were incubated with drugs for 72 hours and developed using Alamar Blue (Alamar Biosciences Inc, Sacramento, CA) as previously described.
Kindly return 1 (yes) if reported Mammalian (3T3) cell % growth at 10 uM is no lower than 90%; return 0 (no) if it is lower.

- MOLECULE: "O=c1cc(-c2ccccc2)oc2cc(O)c(O)c(O)c12"
  ASSAY_TARGET: "murine 3T3 fibroblasts"
  LABEL_VALUE: "0 (no)"
- MOLECULE: "CCCCCCc1ccc(O)cc1O.Nc1c2ccccc2nc2ccccc12"
  ASSAY_TARGET: "murine 3T3 fibroblasts"
  LABEL_VALUE: "0 (no)"
- MOLECULE: "O=c1c(O)c(-c2ccc(O)c(O)c2)oc2c(O[C@@H]3O[C@H](CO)[C@@H](O)[C@H](O)[C@H]3O)c(O)cc(O)c12"
  ASSAY_TARGET: "murine 3T3 fibroblasts"
  LABEL_VALUE: "1 (yes)"

Please check the record CN1CCC(=C2c3ccccc3CCc3sccc32)CC1.O=C(O)CC(O)C(=O)O and state if its Mammalian (3T3) cell % growth at 10 uM is at or above 90%.
0 (no)

Decide: Mammalian (3T3) cell % growth at 10 uM of C=C1c2c(Cl)ccc(O)c2C(O)=C2C(=O)[C@]3(O)C(=O)/C(=C(/N)O)C(=O)[C@@H](N(C)C)[C@@H]3[C@@H](O)[C@H]12.O=C(O)c1cc(S(=O)(=O)O)ccc1O >= 90%?
0 (no)

Determine whether measured Mammalian (3T3) cell % growth at 10 uM meets or exceeds 90% for OCCN1CCN(CCCN2c3ccccc3Sc3ccc(C(F)(F)F)cc32)CC1
1 (yes)

Check this molecule for Mammalian (3T3) cell % growth at 10 uM at or above 90%: CN1CCc2c(c3ccccc3n2Cc2ccccc2)C1.O=S(=O)(O)c1cccc2c(S(=O)(=O)O)cccc12
1 (yes)

Reference for the values: paper PMC4102417
